Tgt: kinase panel containing either 386 or 392 distinct kinases
Assay remarks: Kinase selectivity score S10 from competition binding panel
Run parameters: 10 μM, panel of 386 or 392 distinct kinases
Outcome measure: Kinase specificity S(10)

compound="CC(C)(O)c1cnc2c(c1)ncn2Cc1ccc2nc(N[C@@H]3CCCC[C@H]3O)sc2c1 [Example 109]" observed_result="A (A≤0.01)"
compound="O[C@@H]1CCCC[C@H]1Nc1nc2ccc(Cn3cnc4cncnc43)cc2o1 [Example 118]" observed_result="A (A≤0.01)"
compound="O[C@@H]1CCCC[C@H]1Nc1nc2ccc(Cc3cnc4[nH]c5ccccc5n34)cc2s1 [Example 205]" observed_result="B (0.01<B≤0.02)"
compound="O[C@@H]1CCCC[C@H]1Nc1nc2ccc(Cn3cnc4cc(I)cnc43)cc2s1 [Example 146]" observed_result="B (0.01<B≤0.02)"
compound="Cc1cc2ncn(Cc3ccc4nc(N[C@@H]5CCCC[C@H]5O)sc4c3)c2cc1C [Example 119]" observed_result="A (A≤0.01)"

Prompt: Entry under review: Fc1cnc2c(c1)ncn2Cc1ccc2nc(N[C@@H]3CCCC[C@H]3Cl)sc2c1 [Example 198] . Reported Kinase specificity S(10)?
Response: B (0.01<B≤0.02)

Prompt: Give the measured Kinase specificity S(10) of CN1CCN(c2ccn3c(Cc4ccc5nc(N[C@@H]6CCCC[C@H]6O)sc5c4)cnc3c2)CC1 [Example 188] .
Response: A (A≤0.01)

----------
Tgt: kinase panel containing either 386 or 392 distinct kinases
Assay remarks: Kinase selectivity score S10 from competition binding panel
Run parameters: 10 μM, panel of 386 or 392 distinct kinases
Outcome measure: Kinase specificity S(10)

Reference set (6 entries):
chemical_structure=O[C@H]1[C@@H](O)CCC[C@H]1Nc1nc2ccc(Cn3cnc4cc(F)cnc43)cc2s1 tgt="kinase panel containing either 386 or 392 distinct kinases" observed_result="A (A≤0.01)"
chemical_structure=O[C@@H]1CCCC[C@H]1Nc1nc2ccc(Cn3cnc4cc(C5=CCCCC5)ccc43)cc2s1 tgt="kinase panel containing either 386 or 392 distinct kinases" observed_result="A (A≤0.01)"
chemical_structure=CC(=O)c1ccc2c(c1)ncn2Cc1ccc2nc(N[C@@H]3CCCC[C@H]3O)sc2c1 tgt="kinase panel containing either 386 or 392 distinct kinases" observed_result="A (A≤0.01)"
chemical_structure=Fc1cnc2c(c1)ncn2Cc1ccc2nc(Nc3ccccc3)sc2c1 tgt="kinase panel containing either 386 or 392 distinct kinases" observed_result="A (A≤0.01)"
chemical_structure=Fc1cnc2c(c1)ncn2Cc1ccc2nc(N[C@@H]3CCCC[C@@H]3Cl)sc2c1 tgt="kinase panel containing either 386 or 392 distinct kinases" observed_result="B (0.01<B≤0.02)"
chemical_structure=O[C@@H]1CCCC[C@H]1Nc1nc2ccc(Cn3cnc4cc(C5=CCOCC5)cc(F)c43)cc2s1 tgt="kinase panel containing either 386 or 392 distinct kinases" observed_result="B (0.01<B≤0.02)"

Prompt: Please state recorded Kinase specificity S(10) (tested on kinase panel containing either 386 or 392 distinct kinases) of N#Cc1cc2ncn(Cc3ccc4nc(N[C@@H]5CCCC[C@H]5O)sc4c3)c2nc1C#N
Response: A (A≤0.01)

Prompt: Give Kinase specificity S(10) (kinase panel containing either 386 or 392 distinct kinases) of the following compound: COc1ccc2c(c1)ncn2Cc1ccc2nc(N[C@@H]3CCCC[C@H]3O)oc2c1
Response: B (0.01<B≤0.02)

Prompt: Can you look up Kinase specificity S(10) on kinase panel containing either 386 or 392 distinct kinases for O[C@@H]1CCCC[C@H]1Nc1nc2ccc(Cn3cnc4cc(F)c(F)cc43)cc2s1 ?
Response: B (0.01<B≤0.02)

Prompt: Please provide the recorded Kinase specificity S(10) for COc1ccc2ncc(Cc3ccc4nc(N[C@@H]5CCCC[C@H]5O)sc4c3)n2n1 , tested on kinase panel containing either 386 or 392 distinct kinases.
Response: B (0.01<B≤0.02)

Prompt: Provide value of Kinase specificity S(10) for this record tested with kinase panel containing either 386 or 392 distinct kinases: N#Cc1ccc2ncc(Cc3ccc4nc(N[C@@H]5CCCC[C@H]5O)sc4c3)n2n1
Response: B (0.01<B≤0.02)

Prompt: API: value(readout=Kinase specificity S(10), system=kinase panel containing either 386 or 392 distinct kinases) for record OCCOc1ccc2c(c1)ncn2Cc1ccc2nc(N[C@@H]3CCCC[C@H]3O)sc2c1
Response: B (0.01<B≤0.02)

Prompt: Notebook entry, kinase panel containing either 386 or 392 distinct kinases assay: Kinase specificity S(10) of O[C@@H]1CCCC[C@H]1Nc1nc2ccc(Cc3cnc4cc(-n5cccn5)ccn34)cc2s1 = ?
Response: A (A≤0.01)

Prompt: Form entry - test system: kinase panel containing either 386 or 392 distinct kinases; read-out: Kinase specificity S(10); compound: N#Cc1cc(F)c2c(c1)ncn2Cc1ccc2nc(N[C@@H]3CCCC[C@H]3O)sc2c1
Response: A (A≤0.01)

Prompt: State its Kinase specificity S(10) on kinase panel containing either 386 or 392 distinct kinases: Cc1ccc2c(c1)ncn2Cc1ccc2nc(N[C@@H]3CCCC[C@H]3O)sc2c1
Response: A (A≤0.01)

Prompt: Given the entry N#Cc1ccc2c(c1)ncn2Cc1ccc2nc(N[C@@H]3CCCC[C@H]3O)sc2c1 , what Kinase specificity S(10) was observed with kinase panel containing either 386 or 392 distinct kinases?
Response: A (A≤0.01)
